System: Aβ42 production
TEST: Sandwich ELISA measurement of Aβ42 levels in supernatant of treated N2a-APP695 cells
Assay type: cell-based, Mouse
MEASUREMENT_CONDITIONS: Mus musculus; N2a-APP695 cells, 18h incubation, ELISA assay; read-out: EC50 (µM) at inducing Aβ42 production
ASSAY_READOUT: EC50 (µM)

Below, each entry is followed by its recorded EC50 result.
Bench note: what EC50 did CC[C@H](CO)Nc1nc(N(C)Cc2ccccc2)c2ncn(Cc3ccccc3)c2n1 show?
0.7

Now consider CCCN(Cc1ccccc1)c1nc(N[C@H](CC)CO)nc2c1ncn2C(C)C and answer again.
1.35

Now consider CN(Cc1ccccc1)c1nc(N)nc2c1ncn2C1CCCC1 and answer again.
11

Now consider CC(C)n1cnc2c(N(C)Cc3ccc(-c4ccccn4)cc3)nc(NC[C@H](O)CO)nc21 and answer again.
10

Now consider CC[C@H](CO)Nc1nc(N(CC)Cc2ccccc2)c2ncn(C(C)C)c2n1 and answer again.
3.8

Now consider CN(Cc1ccccc1)c1ncnc2c1ncn2C1CCCC1 and answer again.
12

1. CC[C@H](CO)Nc1nc(N(C)c2ccc(OC)cc2)c2ncn(C(C)C)c2n1
2. CC(C)n1cnc2c(N(C)Cc3ccccc3)nc(N)nc21
3. CCN(Cc1ccccc1)c1nc(N[C@@H](CO)C(C)C)nc2c1ncn2C1CCCC1
// ascending sort on recorded EC50 Sort and list the labels as requested.
3, 1, 2
(3: 0.5 µM, 1: 4.5 µM, 2: 20 µM)

---

Tested on: N2a-APP695 cells
TEST: MTS cell viability assay in the same wells as the ELISA
MEASUREMENT_CONDITIONS: MTS assay, N2a-APP695 cells; class symbol
ASSAY_READOUT: Toxicity

Bench note: what Toxicity did CC[C@H](CO)Nc1nc(N2CCc3ccccc32)c2ncn(C(C)C)c2n1 show?
+

Now consider CC[C@H](CO)Nc1nc(N(C)Cc2cccc(OC)c2)c2ncn(C(C)C)c2n1 and answer again.
+

Now consider CC(C)n1cnc2c(OCc3ccccc3)nc(OCc3ccccc3)nc21 and answer again.
+
